Readings of Fold improvement in KD (compared to IDEC131) for the listed binders
TARGET_ENTITY: T1, human CD154 (human, UniProt P29965 113-261, limits assumed)
T1 construct: also called CD154 antigen; CD40L
T1 sequence (looked up): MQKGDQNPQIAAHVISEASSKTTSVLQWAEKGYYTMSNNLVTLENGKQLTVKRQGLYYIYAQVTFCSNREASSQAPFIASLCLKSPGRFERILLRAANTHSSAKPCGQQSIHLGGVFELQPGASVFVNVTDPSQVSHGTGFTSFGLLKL
ASSAY: SPR, Biacore 3000, 25 C; antibody immobilized, CD154 antigen flowed over; average n = 6
Protocol: Binding experiments were performed on Biacore […] at 25° C. […] Binding of antigen to the tested antibodies was monitored in real time. From the observed kₒₙ, the koff and KD was determined for each variant. Scoring analysis was performed using specific analyte concentrations. At the tested concentration, binding should be observed even if the ligand binding affinity is relatively weak. Full kinetics may be performed by known methods. […]
MEASURE_NAME: Fold improvement in KD (compared to IDEC131) (fold)

{"columns": ["BINDER", "MEASURED_VALUE"],
 "data": [
  ["INX021 (variant 21), humanized anti-human CD154 IgG1 antibody derived from IDEC-131 (antibody, V domains shown) VH: EVQLQESGPGLVKPSETLSLTCTVSGDSITNGFWIWIRKPPGNKLEYMGYISYSGSTYYNPSLKSRISISRDTSKNQFSLKLSSVTAADTGVYYCAYRSYGRTPYYFDYWGQGTTLTVSS VL: DIVMTQSPSFLSASVGDRVTITCKASSNLGHAVAWYQQKPGKSPKLLIYSASNRYTGVPDRFSGSGSGTDFTLTISSLQPEDFADYFCQQYDDYPYTFGGGTKLEIK", 4.7],
  ["variant 23, humanized anti-human CD154 antibody derived from IDEC-131 (antibody, V domains shown, also called combination #23) VH: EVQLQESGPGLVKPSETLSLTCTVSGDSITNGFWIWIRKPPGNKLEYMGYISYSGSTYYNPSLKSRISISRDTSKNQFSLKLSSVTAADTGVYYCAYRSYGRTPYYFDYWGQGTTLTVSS VL: DIVMTQSPSFLSASVGDRVTITCKGSSPLGHAVAWYQQKPGKSPKLLIYSASNRYTGVPDRFSGSGSGTDFTLTISSLQPEDFADYFCQQYDDYPYTFGGGTKLEIK", 4.2],
  ["IDEC-131, humanized anti-human CD154 IgG1 antibody (antibody, V domains shown, Humanized human IgG1 derived from mouse antibody 24-31) VH: EVQLQESGPGLVKPSETLSLTCTVSGDSITNGFWIWIRKPPGNKLEYMGYISYSGSTYYNPSLKSRISISRDTSKNQFSLKLSSVTAADTGVYYCACRSYGRTPYYFDFWGQGTTLTVSS VL: DIVMTQSPSFLSASVGDRVTITCKASQNVITAVAWYQQKPGKSPKLLIYSASNRYTGVPDRFSGSGSGTDFTLTISSLQPEDFADYFCQQYNSYPYTFGGGTKLEIK", 1],
  ["variant 29, humanized anti-human CD154 antibody derived from IDEC-131 (antibody, V domains shown) VH: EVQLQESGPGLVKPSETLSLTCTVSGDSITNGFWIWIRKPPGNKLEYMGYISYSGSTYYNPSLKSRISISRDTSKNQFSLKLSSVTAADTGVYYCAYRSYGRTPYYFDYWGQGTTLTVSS VL: DIVMTQSPSFLSASVGDRVTITCKGNQPLGHAVAWYQQKPGKSPKLLIYSASNRYTGVPDRFSGSGSGTDFTLTISSLQPEDFADYFCQQYDDYPYTFGGGTKLEIK", 4.2],
  ["variant 26, humanized anti-human CD154 antibody derived from IDEC-131 (antibody, V domains shown) VH: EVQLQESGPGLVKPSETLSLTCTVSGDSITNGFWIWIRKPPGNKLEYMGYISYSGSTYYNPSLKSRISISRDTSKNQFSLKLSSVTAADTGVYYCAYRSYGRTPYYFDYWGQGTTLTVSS VL: DIVMTQSPSFLSASVGDRVTITCKASQHLGTAVAWYQQKPGKSPKLLIYSASNRYTGVPDRFSGSGSGTDFTLTISSLQPEDFADYFCQQYDDYPYTFGGGTKLEIK", 2.5]
]}
